molecular target: MaxL homodimer (Homo sapiens, UniProt P61244 1-160); assay: universal protein-binding microarray (PBM); PBS-based mixture, 10 nM His-tagged protein dimer, 2% milk, 200 ng/uL BSA, 50 ng/uL salmon testes DNA, 0.02% TX-100; detection with Alexa 488 anti-His antibody;; high values mean tight binding; details: protein: recombinant; tags: C-terminal His-tag (pET21a); chain copies: 2; dsDNA, one strand shown;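 further: fluorescence intensity normalized to that of the highest-ranked 8-mer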
Sequence (P61244 whole entry): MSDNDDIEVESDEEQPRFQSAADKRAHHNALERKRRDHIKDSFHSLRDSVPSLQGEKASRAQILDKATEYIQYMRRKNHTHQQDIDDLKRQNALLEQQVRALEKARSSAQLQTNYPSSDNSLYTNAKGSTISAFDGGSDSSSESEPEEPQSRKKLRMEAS
Whole data set: some 33,000 sequences, median “normalized occupancy” near 0.075, cut for the highest 2% near 0.095. Many of the other results were omitted from the sample, so the highest values are more common in it than they were.
Could you please report measured binding signal for the items listed next?
Give bare numbers, in normalized occupancy.

Consider the following illustrative entries.
[[record]]
sequenceinput = "CACGCCTC"
recordedresult = 0.0974

[[record]]
sequenceinput = "CATCTTCA"
recordedresult = 0.0786


State recorded binding signal for all listed sequences.
1. GTTTACCA
2. CGTTATGA
3. ACTTGTGC
4. CACGCCTG
5. GGTAACCA
6. AAAATGAC

1. 0.0757
2. 0.0829
3. 0.0751
4. 0.0966
5. 0.0775
6. 0.0766

State recorded binding signal for all listed sequences.
1. CATGGCTA
2. ATTCACCG
3. AACTCCAG

[0.0864, 0.0732, 0.0726]

Data credit: paper PMC4242493
